Listing of entries alongside the reported combination Emax.
# System: MFE-280 (Endometrial Carcinoma)
# assay-summary: combination Emax (second highest fraction inhibited in the dose matrix, 72 h); higher = more inhibition; extreme values may be limits of the assay

[
  {
    "compound": "C[C@@H]1COCCN1c1cc(C2([S@](C)(=N)=O)CC2)nc(-c2ccnc3[nH]ccc23)n1 [AZD6738] + C1CC(C1)(C(=O)[O-])C(=O)[O-].N.N.[Pt+2] [Carboplatin] (first compound max 10 µM, 7x7, partner max 10 µM)",
    "combination Emax": 0.302
  },
  {
    "compound": "C[C@@H](Oc1cc(-c2cnn(C3CCNCC3)c2)cnc1N)c1c(Cl)ccc(F)c1Cl [Crizotinib] + CC1=C(C(=CC=C1)Cl)NC(=O)C2=CN=C(S2)NC3=CC(=NC(=N3)C)N4CCN(CC4)CCO [Dasatinib] (first compound max 10 µM, 7x7, partner max 2 µM)",
    "combination Emax": 0.661
  },
  {
    "compound": "Cc1c2c(nn1C)CSCc1cc(n(C)n1)CSc1cc(c3ccccc3c1)OCCCc1c(C(=O)O)n(C)c3c-2c(Cl)ccc13 [AZD5991] + CN(C)CCCOc1ccc(-c2ccc3ncc4c(c3c2)n(C2CCOCC2)c(=O)n4C)cn1 [AZD0156] (first compound max 1 µM, 7x7, partner max 1 µM)",
    "combination Emax": 0.38
  },
  {
    "compound": "N#Cc1cnc(Nc2cc(NC[C@H]3CNCCO3)c(C(F)(F)F)cn2)cn1 [SRA737] + C=CCn1c(=O)c2cnc(Nc3ccc(N4CCN(C)CC4)cc3)nc2n1-c1cccc(C(C)(C)O)n1 [AZD1775] (first compound max 10 µM, partner max 1 µM)",
    "combination Emax": 0.566
  },
  {
    "compound": "COc1cc2ncnc(Nc3ccc(F)c(Cl)c3)c2cc1OCCCN1CCOCC1 [Gefitinib] + CC(C)n1c(=O)n(C)c2cnc3cc(F)c(-c4ccc(OCCCN5CCCCC5)nc4)cc3c21 [AZD1390] (first compound max 10 µM, 7x7, partner max 0.3 µM)",
    "combination Emax": 0.246
  },
  {
    "compound": "Cn1cnc2c(F)c(Nc3ccc(Br)cc3Cl)c(C(=O)NOCCO)cc21 [Selumetinib] + CC(C)n1c(=O)n(C)c2cnc3cc(F)c(-c4ccc(OCCCN5CCCCC5)nc4)cc3c21 [AZD1390] (first compound max 10 µM, 7x7, partner max 0.3 µM)",
    "combination Emax": 0.17
  },
  {
    "compound": "CN(CCO)CC[C@H](CSc1ccccc1)Nc1ccc(S(=O)(=O)NC(=O)c2ccc(N3CCC([C@@H](O)c4ccccc4-c4ccc(Cl)cc4)CC3)cc2)cc1S(=O)(=O)C(F)(F)F [AZD4320] + Cc1cc2ncnn2cc1Nc1ncc2c(n1)n(C1CCOCC1)c(=O)n2C [AZD7648] (first compound max 1 µM, 7x7, partner max 10 µM)",
    "combination Emax": 0.774
  },
  {
    "compound": "CC1(C)CCC(CN2CCN(c3ccc(C(=O)NS(=O)(=O)c4ccc(NCC5CCOCC5)c([N+](=O)[O-])c4)c(Oc4cnc5[nH]ccc5c4)c3)CC2)=C(c2ccc(Cl)cc2)C1 [Venetoclax] + Cn1cnc2c(F)c(Nc3ccc(Br)cc3Cl)c(C(=O)NOCCO)cc21 [Selumetinib] (first compound max 1 µM, 7x7, partner max 3 µM)",
    "combination Emax": 0.18
  },
  {
    "compound": "CN(CCO)CC[C@H](CSc1ccccc1)Nc1ccc(S(=O)(=O)NC(=O)c2ccc(N3CCC([C@@H](O)c4ccccc4-c4ccc(Cl)cc4)CC3)cc2)cc1S(=O)(=O)C(F)(F)F [AZD4320] + C[C@@H]1COCCN1C2=NC(=NC(=C2)C3(CC3)[S@](=N)(=O)C)C4=C5C=CNC5=NC=C4 [AZD6738] (first compound max 1 µM, 7x7, partner max 10 µM)",
    "combination Emax": 0.88
  },
  {
    "compound": "C=CCn1c(=O)c2cnc(Nc3ccc(N4CCN(C)CC4)cc3)nc2n1-c1cccc(C(C)(C)O)n1 [AZD1775] + C1CN(CCC1(C(=O)N[C@@H](CCO)C2=CC=C(C=C2)Cl)N)C3=NC=NC4=C3C=CN4 [Capivasertib] (first compound max 3 µM, partner max 3 µM)",
    "combination Emax": 0.451
  },
  {
    "compound": "CCN(CCO)CCCOc1ccc2c(Nc3cc(CC(=O)Nc4cccc(F)c4)[nH]n3)ncnc2c1 [AZD2811] + C[C@@H]1COCCN1C2=NC(=NC(=C2)C3(CC3)[S@](=N)(=O)C)C4=C5C=CNC5=NC=C4 [AZD6738] (first compound max 1 µM, 7x7, partner max 10 µM)",
    "combination Emax": 0.436
  },
  {
    "compound": "NC1(C(=O)N[C@@H](CCO)c2ccc(Cl)cc2)CCN(c2ncnc3[nH]ccc23)CC1 [Capivasertib] + CC(C)n1c(=O)n(C)c2cnc3cc(F)c(-c4ccc(OCCCN5CCCCC5)nc4)cc3c21 [AZD1390] (first compound max 10 µM, 7x7, partner max 0.3 µM)",
    "combination Emax": 0.583
  },
  {
    "compound": "Cc1c2c(nn1C)CSCc1cc(n(C)n1)CSc1cc(c3ccccc3c1)OCCCc1c(C(=O)O)n(C)c3c-2c(Cl)ccc13 [AZD5991] + C[C@@H]1COCCN1C2=NC(=NC(=C2)C3(CC3)[S@](=N)(=O)C)C4=C5C=CNC5=NC=C4 [AZD6738] (first compound max 1 µM, 7x7, partner max 10 µM)",
    "combination Emax": 0.384
  }
]
